All figures here come from PubChem BioAssay (NCI).

- Test system: DU-145 prostate
- RUN_DESCRIPTION: NCI tumour cell line growth inhibition, 48 h
Would you kindly list TGI for each of these molecules?

Data request: Endpoint output: TGI of CN(C)c1ccc(-c2nc(-c3cc4c(ccc5ccccc54)oc3=O)cs2)cc1 . Value?
Data returned: > 100 µM

Data request: Suppose we examine the molecule CCCCCCCCCCCCCCCC[N+]1(CC)CCCC1 ; what TGI value has been reported?
Data returned: 2.14 µM

Data request: Item Cc1ccc(C2=Nc3c(N)ncnc3NC(c3cccc(Nc4ccnc5cc(C(F)(F)F)ccc45)c3)C2)cc1 (stereo not given) has what recorded TGI?
Data returned: > 100 µM

Data request: Bench note: what TGI did O=c1oc(-c2ccc(O)c(O)c2)cc2cc(O)cc(O)c12 show?
Data returned: > 100 µM

Data request: Item under review: COc1cc(OC)c(CSCC(NC(=O)OCC2c3ccccc3-c3ccccc32)C(=O)O)c(OC)c1 (stereo not given) . Reported TGI?
Data returned: > 10 µM

Data request: Item CCOC(=O)c1cc(-c2ccc(OC)c(OC)c2)c[nH]1 has what recorded TGI?
Data returned: > 10 µM

Data request: // TGI lookup, key: CC(C)(C)n1cc(-c2ccnc(NCCNS(=O)(=O)c3ccc(Br)cc3)c2)c(-c2cccc(O)c2)n1
Data returned: 4.86 µM

Data request: Field request: TGI | item: COC(=O)Cc1c(C2=Nc3ccccc3C2(O)CC(=O)OC)[nH]c2ccccc12 (stereo not given)
Data returned: > 100 µM

Data request: What TGI value was documented for this molecule, O=S1(=O)NNC(=NCc2ccc(F)cc2)c2ccccc21 ?
Data returned: > 100 µM

Data request: Which TGI value is on record for O=C1c2cc3c(cc2CC12Cc1cc4c(cc1C2)CCC4)CCC3 ?
Data returned: > 100 µM
